system: MDA-MB-231; experiment: Induction of apoptosis in human MDA-MB-231 cells assessed as necrotic cells at 2.5 uM after 24 hrs by annexin V-FITC/Propidium iodide staining based flow cytometric analysis (reference value: 0.65%); format: functional
Answer each item with its documented Activity.
Note: unit % is implicit; provide only the numeric part.

Supply recorded Activity for O=C1C(=O)c2sccc2-c2ccccc21 here.
26.8

Supply recorded Activity for Cc1coc2c1C(=O)C(=O)c1c-2ccc2c(C)cccc12 here.
3.56

Supply recorded Activity for Cc1coc2c1C(=O)C(=O)c1c-2ccc2c1CCCC2(C)C here.
2.11

Supply recorded Activity for COc1ccc2ccc3c(c2c1)-c1ccsc1C(=O)C3=O here.
1.19

Supply recorded Activity for O=C1C(=O)c2ccsc2-c2ccccc21 here.
43.5

Origin of measurements: ChEMBL document CHEMBL4732262
